Where do the numbers come from? From patent US12227509B2.

- Experiment summary: Metabolism stability test (human liver microsomes)
- Assay type: in vitro ADME
- Assay context: compound concentration 0.5 μmol/L, 37° C., 30 minutes, NADPH
Property name: Remaining rate (%)

{"columns": ["Smiles input", "Remaining rate / %"],
 "data": [
  ["CS(=O)(=O)CC(=O)Nc1c(-c2ccc(Cl)cn2)nn2c1C(=O)N[C@]1(CCc3cc(F)cc(F)c31)C2", 89.8],
  ["CS(=O)(=O)CC(=O)Nc1c(-c2ccc(F)cc2)nn2c1C(=O)N[C@@]1(CCOc3cc(OCC(F)(F)F)ccc31)C2", 105],
  ["CS(=O)(=O)CC(=O)Nc1c(-c2ccc(F)c(F)c2)nn2c1C(=O)N[C@@]1(CCc3cc(OCC(F)(F)F)ccc31)C2", 98.5],
  ["N#Cc1ccc(-c2nn3c(c2NC(=O)c2ccno2)C(=O)N[C@@]2(CCc4cc(OCC(F)(F)F)ccc42)C3)nc1", 76]
]}

====

- Assay target: hERG (IKr) (Homo sapiens (Human), UniProt Q12809)
- Sequence (Q12809 whole entry): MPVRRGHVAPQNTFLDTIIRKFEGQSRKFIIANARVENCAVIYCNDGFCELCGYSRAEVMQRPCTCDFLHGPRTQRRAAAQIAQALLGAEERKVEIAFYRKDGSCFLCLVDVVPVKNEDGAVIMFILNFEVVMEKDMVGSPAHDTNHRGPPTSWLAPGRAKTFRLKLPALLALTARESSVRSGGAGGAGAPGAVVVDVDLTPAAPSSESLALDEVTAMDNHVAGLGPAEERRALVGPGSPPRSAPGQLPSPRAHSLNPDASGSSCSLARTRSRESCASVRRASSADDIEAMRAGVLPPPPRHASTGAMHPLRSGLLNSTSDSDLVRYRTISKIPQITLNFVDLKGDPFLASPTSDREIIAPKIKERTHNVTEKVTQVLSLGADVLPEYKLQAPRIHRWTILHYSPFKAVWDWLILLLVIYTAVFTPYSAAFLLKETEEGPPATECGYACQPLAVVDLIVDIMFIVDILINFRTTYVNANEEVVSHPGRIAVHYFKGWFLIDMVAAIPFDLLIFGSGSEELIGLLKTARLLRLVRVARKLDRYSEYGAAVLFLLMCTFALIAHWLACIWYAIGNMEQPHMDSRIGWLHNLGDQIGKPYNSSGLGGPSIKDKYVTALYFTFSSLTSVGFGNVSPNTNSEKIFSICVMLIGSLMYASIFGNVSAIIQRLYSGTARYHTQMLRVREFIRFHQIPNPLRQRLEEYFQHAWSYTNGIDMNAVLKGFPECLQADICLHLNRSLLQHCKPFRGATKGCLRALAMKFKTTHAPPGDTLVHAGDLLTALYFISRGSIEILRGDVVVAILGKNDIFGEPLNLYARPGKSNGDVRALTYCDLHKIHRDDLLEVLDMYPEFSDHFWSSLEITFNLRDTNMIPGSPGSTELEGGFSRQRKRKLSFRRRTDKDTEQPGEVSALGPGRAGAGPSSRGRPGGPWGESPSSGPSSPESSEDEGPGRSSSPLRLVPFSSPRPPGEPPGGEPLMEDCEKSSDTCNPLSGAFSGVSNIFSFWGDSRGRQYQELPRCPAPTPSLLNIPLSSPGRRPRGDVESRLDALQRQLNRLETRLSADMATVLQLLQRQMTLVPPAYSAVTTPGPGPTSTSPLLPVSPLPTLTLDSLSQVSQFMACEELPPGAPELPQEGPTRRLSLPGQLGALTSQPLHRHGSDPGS
- Experiment summary: hERG test
- Type: cell-based
- Assay context: CHO cells expressing hERG channel, pH 7.4, 10 μmol/L of test compound, read-out: % inhibition of hERG tail peak current (IKr)
Property name: inhibition at 10 min, 10 μmol/L (%)
Quick reminder: number only, in %, skip the unit.

{"columns": ["Compound", "Unit of measurement", "inhibition at 10 min, 10 μmol/L"],
 "data": [
  ["CS(=O)(=O)CC(=O)Nc1c(-c2ccc(F)c(F)c2)nn2c1C(=O)N[C@@]1(CCc3cc(F)cc(F)c31)C2 [Compound I-130]", "%", 15.4]
]}

Note to self: inhibition at 10 min, 10 μmol/L recorded for CS(=O)(=O)CC(=O)Nc1c(-c2ccc(Cl)cn2)nn2c1C(=O)N[C@]1(CCc3cc(F)cc(F)c31)C2 [Compound I-147] was 21.6

Note to self: inhibition at 10 min, 10 μmol/L recorded for CS(=O)(=O)CC(=O)Nc1c(-c2ccc(F)cc2)nn2c1C(=O)N[C@@]1(CCOc3cc(OCC(F)(F)F)ccc31)C2 [Compound I-66] was 14.6

Note to self: inhibition at 10 min, 10 μmol/L recorded for Cc1ccc(-c2nn3c(c2NC(=O)CS(C)(=O)=O)C(=O)N[C@@]2(CCc4cc(OCC(F)(F)F)ccc42)C3)cc1 [Compound I-20] was 27.8

Note to self: inhibition at 10 min, 10 μmol/L recorded for CS(=O)(=O)CC(=O)Nc1c(-c2ccc(Cl)cn2)nn2c1C(=O)N[C@]1(CCOc3cc(F)cc(F)c31)C2 [Compound I-151] was 25.8

Note to self: inhibition at 10 min, 10 μmol/L recorded for CS(=O)(=O)CC(=O)Nc1c(-c2ccc(C3CC3)cn2)nn2c1C(=O)N[C@@]1(CCc3cc(F)cc(F)c31)C2 [Compound I-141] was 14

====

- Assay target: recombinant human MGAT2 (Homo sapiens (Human))
- Sequence (Q3SYC2 whole entry): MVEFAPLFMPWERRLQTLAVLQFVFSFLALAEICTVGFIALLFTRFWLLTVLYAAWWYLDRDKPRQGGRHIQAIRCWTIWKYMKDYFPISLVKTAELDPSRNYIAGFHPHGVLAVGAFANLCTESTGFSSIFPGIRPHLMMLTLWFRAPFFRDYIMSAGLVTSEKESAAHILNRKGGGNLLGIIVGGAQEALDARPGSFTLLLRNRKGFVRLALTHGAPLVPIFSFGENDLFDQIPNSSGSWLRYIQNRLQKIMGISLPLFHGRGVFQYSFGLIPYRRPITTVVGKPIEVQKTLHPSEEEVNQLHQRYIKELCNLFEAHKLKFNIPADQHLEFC
- Experiment summary: Measurement of human MGAT2 inhibitory activity
- Assay type: biochemical
- Assay context: concentration exhibiting 50% enzyme inhibition; recombinant human MGAT2, 2-Oleoylglycerol/Oleoyl-CoA
Property name: IC50 (nM)

Worked cases, IC50 given:
{"columns": ["Compound", "IC50, nM"],
 "data": [
  ["Cc1ccc(-c2nn3c(c2NC(=O)CS(C)(=O)=O)C(=O)NC2(CN(c4ccc(C(F)(F)F)cc4)C2)C3)nc1 [Compound I-65]", 0.935],
  ["CNS(=O)(=O)CC(=O)Nc1c(-c2ccc(C#N)cn2)nn2c1C(=O)N[C@]1(CCc3cc(OCC(F)(F)F)ccc31)C2 [Compound I-11]", 1.08],
  ["Cc1ccc(-c2nn3c(c2NC(=O)c2ccno2)C(=O)N[C@@]2(CCc4cc(OCC(F)(F)F)ccc42)C3)nc1 [Compound I-42]", 11.3],
  ["CS(=N)(=O)CC(=O)Nc1c(-c2ccc(F)c(F)c2)nn2c1C(=O)N[C@@]1(CCc3cc(OCC(F)(F)F)ccc31)C2 (stereo partly shown) [Compound I-108]", 3.43]
]}

I: CS(=O)(=O)CC(=O)Nc1c(-c2ccc(C(F)F)cc2)nn2c1C(=O)N[C@@]1(CCc3cc(F)cc(F)c31)C2 [Compound I-131]
II: CS(=O)(=O)CC(=O)Nc1c(-c2ccc(C3CC3)cn2)nn2c1C(=O)N[C@@]1(CCc3cc(OCC(F)(F)F)ccc31)C2 [Compound I-57]
Problem: Could you kindly indicate whether I or II has the higher IC50 value? Refer to your chosen item by its label in the answer.
Result: I

1: CCCCCc1nn2c(c1NC(=O)CS(C)(=O)=O)C(=O)N[C@@]1(CCc3cc(OCC(F)(F)F)ccc31)C2 [Compound I-47]
2: CS(=O)(=O)CC(=O)Nc1c(-c2ccc(F)c(F)c2)nn2c1C(=O)N[C@]1(CCc3cc(F)cc(F)c31)C2 [Compound I-148]
3: CS(=O)(=O)CC(=O)Nc1c(CCC2CC2)nn2c1C(=O)N[C@]1(CCc3cc(F)cc(F)c31)C2 [Compound I-149]
4: CCOc1ccc2c(c1)CC[C@]21Cn2nc(CCC3CC3)c(NC(=O)CS(C)(=O)=O)c2C(=O)N1 [Compound I-103]
Problem: Put these in order: smallest IC50 first, largest last. Your task in answering is to list the labels in the requested order.
Result: 1, 4, 2, 3
(1: 2.73 nM, 4: 7.03 nM, 2: 10.6 nM, 3: 23.4 nM)

a: Cc1c(F)cc(-c2nn3c(c2NC(=O)CS(C)(=O)=O)C(=O)N[C@@]2(CCc4cc(OCC(F)(F)F)ccc42)C3)cc1F [Compound I-53]
b: CCOc1ccc2c(c1)OCC[C@@]21Cn2nc(-c3ccc(F)cc3)c(NC(=O)CS(C)(=O)=O)c2C(=O)N1 [Compound I-134]
Problem: Could you kindly indicate whether a or b has the higher IC50 value? Refer to your chosen item by its label in the answer.
Result: b
